- assay-text: Solubility measurement in PBS
- Type: physicochemical
- protocol-conditions: PBS buffer, pH 7.4, aqueous buffer, thermodynamic from solid; in phosphate-buffered saline [PBS]
- Procedure: The solubility of ZN148 was evaluated in PBS buffer at pH 7.4. Increasing amounts of ZN148 was dissolved in 1.0 ml at room temperature by gentle swirling of the solution in a glass vial. A total of 1.225 g of ZN148 was successfully dissolved in 1.0 ml of PBS buffer, giving a total volume of 1.8 ml. This solution was stable at 4°C for more than 6 weeks without precipitation.
property-name: solubility (mg/mL)
Field format: number, assumed mg/mL, no unit text.

Value of solubility reported for the compound CN(C[C@H](O)[C@@H](O)[C@H](O)[C@H](O)CO)C(=O)c1ccc(CN(Cc2ccccn2)Cc2ccccn2)nc1 [ZN148] is 1220

* * *

- System: NDM-1-producing K. pneumoniae K66-45
- assay-text: Meropenem MIC, broth microdilution, indicator strain K66-45
- Type: cell-based
- protocol-conditions: meropenem alone or in combination with 50 μM of the labelled inhibitor
property-name: meropenem MIC (µg/mL)
Field format: number, assumed µg/mL, no unit text.

Value of meropenem MIC reported for the molecule CN(C[C@H](O)[C@@H](O)[C@H](O)[C@H](O)CO)C(=O)c1ccc(CN(Cc2ccccc2)Cc2ccccc2)nc1 is 32

Value of meropenem MIC reported for the molecule c1ccc(CN(Cc2ccccn2)Cc2ccccn2)nc1 is 0.125

Value of meropenem MIC reported for the molecule CN(C[C@H](O)[C@@H](O)[C@H](O)[C@H](O)CO)C(=O)c1ccc(CN(Cc2ccccc2)Cc2ccccn2)nc1 is 32

Value of meropenem MIC reported for the molecule CN(C[C@H](O)[C@@H](O)[C@H](O)[C@H](O)CO)C(=O)c1ccc(CN(Cc2ccccn2)Cc2ccccn2)cc1 is 32
